Molecular target: cannabinoid CB1 receptor (Homo sapiens, UniProt P21554)
Construct: host or cells: HEK293 CB1 β-arrestin cells
Sequence (P21554 whole entry): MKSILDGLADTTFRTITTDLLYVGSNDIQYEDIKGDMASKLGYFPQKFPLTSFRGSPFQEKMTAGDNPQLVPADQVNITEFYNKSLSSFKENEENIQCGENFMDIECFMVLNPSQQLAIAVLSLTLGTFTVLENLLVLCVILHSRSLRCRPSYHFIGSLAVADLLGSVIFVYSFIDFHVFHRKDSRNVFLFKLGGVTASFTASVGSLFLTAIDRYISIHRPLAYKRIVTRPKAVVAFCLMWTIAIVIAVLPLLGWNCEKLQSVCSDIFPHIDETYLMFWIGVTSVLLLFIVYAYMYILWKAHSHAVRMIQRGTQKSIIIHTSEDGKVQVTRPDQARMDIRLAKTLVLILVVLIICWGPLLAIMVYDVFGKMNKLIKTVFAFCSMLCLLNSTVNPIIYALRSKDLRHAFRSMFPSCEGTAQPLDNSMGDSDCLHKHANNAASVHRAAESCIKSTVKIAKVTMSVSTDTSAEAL
Experiment: PathHunter β-Arrestin assay (allosteric inhibition of agonist Emax)
Type: cell-based
Details: HEK293 CB1 β-arrestin cells; concentration of modulator giving 50% reduction in agonist Emax; 60 min pre-incubation
ASSAY METRIC: IC50 (nM)

Considering CCc1c(-c2nnc(SCc3ccccc3)o2)[nH]c2ccc(Br)cc12 , its IC50 with cannabinoid CB1 receptor (Homo sapiens, UniProt P21554) was recorded as 30

Considering CCc1c(-c2nnc(SCc3ccc(OC)cc3)o2)[nH]c2ccc(Cl)cc12 , its IC50 with cannabinoid CB1 receptor (Homo sapiens, UniProt P21554) was recorded as 56

Considering Cc1c(-c2nnc(SCCCc3ccccc3)o2)[nH]c2ccc(Cl)cc12 , its IC50 with cannabinoid CB1 receptor (Homo sapiens, UniProt P21554) was recorded as 263

a = Cc1c(-c2nnc(NCCc3ccccc3)o2)[nH]c2ccc(Cl)cc12
b = c1ccc(CCSc2nnc(-c3cc4ccccc4[nH]3)o2)cc1
Could you kindly indicate whether a or b has the higher IC50 value? // caller expects the label of the chosen entry b
(b: 172 nM, a: 1 nM)

I = CCc1c(-c2nnc(Nc3ccccc3)o2)[nH]c2ccc(Br)cc12
II = CCc1c(-c2nnc(SCc3ccccc3)o2)[nH]c2ccc(Cl)cc12
III = Cc1c(-c2nnc(SCc3ccc(F)cc3)o2)[nH]c2ccc(Cl)cc12
Please put the entries in order of rising IC50. Return the labels ranked in the requested order, please. I, II, III
(I: 1 nM, II: 58 nM, III: 270 nM)
